Target: Metabotropic glutamate receptor 5 (Rattus norvegicus) (UniProt P31424)
Sequence (P31424 21-1203 limits assumed): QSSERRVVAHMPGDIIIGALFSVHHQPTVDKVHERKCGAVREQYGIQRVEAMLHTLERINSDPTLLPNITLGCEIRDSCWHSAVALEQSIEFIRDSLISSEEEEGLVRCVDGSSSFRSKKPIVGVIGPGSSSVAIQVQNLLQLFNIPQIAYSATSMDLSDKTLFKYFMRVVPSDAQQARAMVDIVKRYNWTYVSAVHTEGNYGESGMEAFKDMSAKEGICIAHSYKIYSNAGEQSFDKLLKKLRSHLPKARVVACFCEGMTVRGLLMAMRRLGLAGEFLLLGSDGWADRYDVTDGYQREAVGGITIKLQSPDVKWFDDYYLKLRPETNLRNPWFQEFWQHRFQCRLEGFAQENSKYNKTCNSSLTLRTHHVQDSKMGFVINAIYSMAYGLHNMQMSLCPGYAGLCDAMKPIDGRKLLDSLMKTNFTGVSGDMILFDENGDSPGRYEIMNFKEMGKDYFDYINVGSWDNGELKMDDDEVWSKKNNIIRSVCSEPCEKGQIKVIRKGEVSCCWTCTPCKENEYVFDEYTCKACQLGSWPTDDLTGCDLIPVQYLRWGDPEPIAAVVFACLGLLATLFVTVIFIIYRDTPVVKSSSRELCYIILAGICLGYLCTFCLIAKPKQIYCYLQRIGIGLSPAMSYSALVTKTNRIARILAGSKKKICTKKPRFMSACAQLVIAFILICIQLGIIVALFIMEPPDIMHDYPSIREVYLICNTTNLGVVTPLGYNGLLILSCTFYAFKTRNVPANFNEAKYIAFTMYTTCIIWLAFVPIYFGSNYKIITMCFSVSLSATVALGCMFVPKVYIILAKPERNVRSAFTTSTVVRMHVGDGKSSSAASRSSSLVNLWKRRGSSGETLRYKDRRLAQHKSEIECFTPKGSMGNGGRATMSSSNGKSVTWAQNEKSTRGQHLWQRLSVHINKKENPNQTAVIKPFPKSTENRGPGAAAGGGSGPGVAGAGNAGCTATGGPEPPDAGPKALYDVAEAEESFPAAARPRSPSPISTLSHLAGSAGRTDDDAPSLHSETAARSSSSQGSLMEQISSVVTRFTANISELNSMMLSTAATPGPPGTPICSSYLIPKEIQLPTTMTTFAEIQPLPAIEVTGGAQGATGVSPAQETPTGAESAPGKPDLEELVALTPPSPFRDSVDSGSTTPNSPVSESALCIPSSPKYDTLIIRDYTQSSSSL
Test: Positive allosteric modulation of rat mGluR5 stably expressed in HEK293 cells assessed as increase in intracellular calcium level by Fluo-4AM dye-based fluorescence assay relative to glutamate
Format: functional, cell-based
measuredEndpoint: Efficacy (%)
The reply should contain only the number, in %.

Please give the measured Efficacy for this compound: `C[C@@H](NC(=O)c1ccc(C#Cc2ccccn2)cn1)C(C)(C)O`
57.5

What would you report for `Cc1cc(C(=O)N[C@H](C)C(C)(C)O)ncc1C#Cc1cccc(F)c1` ?
66.6

What would you report for `Cc1nc(C#Cc2cccc(F)c2)ccc1C(=O)N[C@H](C)C(C)(C)O` ?
64.9

* * *

Test: Plasma protein binding in human
Format: ADME, cell-free
measuredEndpoint: fraction unbound
// print number alone

Please give the measured fraction unbound for this compound: `C[C@@H](NC(=O)c1ccc(C#Cc2cccc(F)c2)cn1)C(C)(C)O`
0.027

* * *

Biological target: Metabotropic glutamate receptor 5 (Rattus norvegicus)
Sequence (P31424 whole entry): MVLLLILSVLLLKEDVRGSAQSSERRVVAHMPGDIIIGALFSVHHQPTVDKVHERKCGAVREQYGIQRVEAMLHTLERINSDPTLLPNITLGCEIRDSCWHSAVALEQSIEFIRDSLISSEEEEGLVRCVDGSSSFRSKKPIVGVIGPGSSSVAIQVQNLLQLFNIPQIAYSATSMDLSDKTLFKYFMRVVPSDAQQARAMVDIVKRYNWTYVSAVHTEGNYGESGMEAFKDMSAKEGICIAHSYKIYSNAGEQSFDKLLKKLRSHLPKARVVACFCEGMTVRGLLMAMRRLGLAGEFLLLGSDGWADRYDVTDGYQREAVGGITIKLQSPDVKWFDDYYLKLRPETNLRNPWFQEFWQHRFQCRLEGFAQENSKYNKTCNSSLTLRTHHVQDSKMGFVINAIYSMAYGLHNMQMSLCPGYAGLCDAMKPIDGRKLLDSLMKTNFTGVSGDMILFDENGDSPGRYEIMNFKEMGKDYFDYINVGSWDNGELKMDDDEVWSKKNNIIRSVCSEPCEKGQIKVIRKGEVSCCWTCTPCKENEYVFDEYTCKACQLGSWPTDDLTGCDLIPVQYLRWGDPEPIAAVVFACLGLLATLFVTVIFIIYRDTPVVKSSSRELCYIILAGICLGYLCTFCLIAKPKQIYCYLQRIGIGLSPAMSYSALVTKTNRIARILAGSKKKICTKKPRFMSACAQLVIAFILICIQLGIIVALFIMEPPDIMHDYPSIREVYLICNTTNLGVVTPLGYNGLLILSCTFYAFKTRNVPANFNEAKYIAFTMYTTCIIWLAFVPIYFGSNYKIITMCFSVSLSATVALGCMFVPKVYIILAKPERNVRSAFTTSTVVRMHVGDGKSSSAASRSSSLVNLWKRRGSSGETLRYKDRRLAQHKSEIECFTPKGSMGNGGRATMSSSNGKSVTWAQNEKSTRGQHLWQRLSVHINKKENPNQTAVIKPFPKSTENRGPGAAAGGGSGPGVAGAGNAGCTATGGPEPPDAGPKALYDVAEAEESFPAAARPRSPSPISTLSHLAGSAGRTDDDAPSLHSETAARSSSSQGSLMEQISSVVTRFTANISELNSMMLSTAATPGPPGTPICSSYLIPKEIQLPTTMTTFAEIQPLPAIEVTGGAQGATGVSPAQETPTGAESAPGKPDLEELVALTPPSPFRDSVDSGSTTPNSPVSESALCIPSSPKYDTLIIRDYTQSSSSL
Experiment: Agonist activity at rat mGluR5 stably expressed in HEK293 cells assessed as increase in intracellular calcium level by Fluo-4AM dye-based fluorescence assay
Format: cell-based
Details: read-out: EC50
measuredEndpoint: pEC50
// scale note: pEC50 = -log10(conc_M); give the bare number

Example cases with answers are listed next.
[
  {
    "smilesText": "C[C@@H](NC(=O)c1ccc(C#Cc2cccnc2)cn1)C(C)(C)O",
    "subjectOfTest": "Metabotropic glutamate receptor 5 (Rattus norvegicus)",
    "obsValue": 5.03
  },
  {
    "smilesText": "C[C@H](NC(=O)c1ccc(C#Cc2cccc(F)c2)cn1)C(C)(C)C",
    "subjectOfTest": "Metabotropic glutamate receptor 5 (Rattus norvegicus)",
    "obsValue": 5.27
  },
  {
    "smilesText": "CC(C)(O)CNC(=O)c1ccc(C#Cc2cccc(F)c2)cn1",
    "subjectOfTest": "Metabotropic glutamate receptor 5 (Rattus norvegicus)",
    "obsValue": 5.40
  },
  {
    "smilesText": "C[C@@H](NC(=O)c1ccc(C#Cc2ccncc2)cn1)C(C)(C)O",
    "subjectOfTest": "Metabotropic glutamate receptor 5 (Rattus norvegicus)",
    "obsValue": 5.33
  },
  {
    "smilesText": "C[C@@H](NC(=O)c1ccc(C#Cc2ncccc2F)cn1)C(C)(C)O",
    "subjectOfTest": "Metabotropic glutamate receptor 5 (Rattus norvegicus)",
    "obsValue": 5.43
  }
]

Please give the measured pEC50 for this compound: `C[C@@H](NC(=O)c1ccc(C#CC2CCCC2)cn1)C(C)(C)O`
5.01

* * *

Target: Cytochrome P450 2C9 (Homo sapiens)
Sequence (P11712 whole entry): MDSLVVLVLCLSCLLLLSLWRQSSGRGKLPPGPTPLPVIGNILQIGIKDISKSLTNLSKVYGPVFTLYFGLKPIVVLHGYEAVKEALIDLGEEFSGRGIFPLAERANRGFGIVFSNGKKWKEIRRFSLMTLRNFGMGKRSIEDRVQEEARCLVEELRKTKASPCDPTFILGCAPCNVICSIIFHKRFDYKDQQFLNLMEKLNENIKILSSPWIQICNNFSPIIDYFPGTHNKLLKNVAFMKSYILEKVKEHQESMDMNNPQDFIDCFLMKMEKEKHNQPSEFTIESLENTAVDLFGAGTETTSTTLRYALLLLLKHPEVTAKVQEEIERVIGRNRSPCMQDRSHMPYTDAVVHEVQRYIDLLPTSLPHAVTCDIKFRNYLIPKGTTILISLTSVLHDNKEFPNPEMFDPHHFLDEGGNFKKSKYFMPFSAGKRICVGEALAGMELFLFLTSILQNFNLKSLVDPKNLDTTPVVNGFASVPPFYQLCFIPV
pIC50: −log10 of the molar value.
measuredEndpoint: pIC50

Please give the measured pIC50 for this molecule: `CC1(NC(=O)c2ccc(C#Cc3cccc(F)c3)cn2)COC1`
< 4.52

* * *

Target: Metabotropic glutamate receptor 5 (Rattus norvegicus)
Experiment: Potentiation of rat mGluR5 receptor stably expressed in HEK293 cells assessed as fold shift in glutamate concentration response curve at 10 uM relative to control
Type: cell-based
Label Yes for high-side fold change (FC) (at or above 2) and No for low-side fold change (FC) (below it).

Take a look at these entries with their results.
[
  {
    "smilesText": "Cc1cc(C#Cc2cccc(F)c2)cnc1C(=O)N[C@H](C)C(C)(C)O",
    "assignedCategory": "Yes"
  },
  {
    "smilesText": "CC(C)CNC(=O)c1ccc(C#Cc2cccc(F)c2)cn1",
    "assignedCategory": "No"
  }
]

Shifting focus to the molecule that follows.
Can `Cc1nc(C#Cc2ccc(C(=O)N[C@H](C)C(C)(C)O)nc2)cs1` be said to have fold change (FC) at or above 2?
No
